Each item that follows carries a reported chemical recovery by SPE of plasma.
# Test Details: chemical recovery by SPE of plasma after PDMS sampling; higher = better extraction;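 also: over 400 spiked chemicals quantified by LC-HRMS or GC-HRMS via internal standard calibration, recovery relative to spike mix added to unspiked plasma extract to correct matrix effects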
# Study Conditions: pooled human plasma; extraction method: HLB SPE of plasma after PES; equilibration time (d): 3
Endpoint: chemical recovery by SPE of plasma (%)

>>> experimental_result("CC(C(=O)O)c1cccc(C(=O)c2ccccc2)c1 (stereo unspecified) [Ketoprofen]")
54
>>> experimental_result("CCCNCCOc1c(Cl)cc(Cl)cc1Cl [Prochloraz BTS403-48]")
0.287
>>> experimental_result("Brc1ccc(Oc2ccc(Br)cc2Br)c(Br)c1 [BDE47]")
1.56
>>> experimental_result("CC(C)Nc1nc(N)nc(Cl)n1 [Desethylatrazine]")
26.3
>>> experimental_result("CNC(=O)Oc1cccc2c1OC(C)(C)O2 [Bendiocarb]")
26.5
>>> experimental_result("COc1cc(NS(=O)(=O)c2ccc(N)cc2)nc(OC)n1 [Sulfadimethoxine]")
50.2
